# SYSTEM: T1, Ube2g2 (UniProt P60604 1-165)
# T1 sequence: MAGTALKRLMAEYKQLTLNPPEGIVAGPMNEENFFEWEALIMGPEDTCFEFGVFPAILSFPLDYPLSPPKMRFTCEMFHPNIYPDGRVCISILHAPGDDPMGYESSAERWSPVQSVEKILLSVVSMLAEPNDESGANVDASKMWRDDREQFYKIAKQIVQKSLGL
# METHOD SUMMARY: NMR titration
pKd: −log10 of the molar value.
OBSERVATION TYPE: pKd

Ask | Looking for the measured pKd of SADERQRMLVQRKDELLQQARKRFLNK (peptide, UniProt Q9UKV5 574-600, looked up) [G2BR peptide (Ube2g2 binding region of gp78, amino acids 574-600)] , can you help?
Reply | > 6.00
